Origin of the recorded values: ChEMBL document CHEMBL1148235

# protocol_notes: Plasma clearance of compound in rats was evaluated
# Assay type: ADME, organism-based
# assay_conditions: rat, read-out: Clp
Listed compounds paired with reported clearance
Write the number in mL/min/kg without appending the unit.

Example entries begin here.
> print(dat)
                                   molecule  experimental.readout  meas.value
1  COc1cccc(OC)c1-c1ccc(C[C@H](/N=C(\NCC(C)(C)C)[C@@H]2CCN2S(=O)(=O)c2ccccc2)C(=O)O)cc1             clearance          64
2  COc1cccc(OC)c1-c1ccc(C[C@H](/N=C(\N)[C@@H]2CCN2S(=O)(=O)c2ccccc2)C(=O)O)cc1             clearance          61
3  CN/C(=N\[C@@H](Cc1ccc(-c2c(OC)cccc2OC)cc1)C(=O)O)[C@@H]1CCN1S(=O)(=O)c1ccccc1             clearance          81
4  CON/C(=N\[C@@H](Cc1ccc(-c2c(OC)cccc2OC)cc1)C(=O)O)[C@@H]1CCN1S(=O)(=O)c1ccccc1             clearance          79
5  COCCN/C(=N\[C@@H](Cc1ccc(-c2c(OC)cccc2OC)cc1)C(=O)O)[C@@H]1CCN1S(=O)(=O)c1ccccc1             clearance          81

Asked: Fill in the blank: the reported clearance of COc1cccc(OC)c1-c1ccc(C[C@H](/N=C(\NCC2CCOOCC2)[C@@H]2CCN2S(=O)(=O)c2ccccc2)C(=O)O)cc1 is ____.
Given back: 67

Asked: Data request, read-out clearance, for COc1cccc(OC)c1-c1ccc(C[C@H](/N=C(\NS(C)(=O)=O)[C@@H]2CCN2S(=O)(=O)c2ccccc2)C(=O)O)cc1
Given back: 103

Asked: May I ask what clearance has been recorded for COc1cccc(OC)c1-c1ccc(C[C@H](/N=C(\N)[C@@H]2CCN2S(=O)(=O)c2cc(Cl)cc(Cl)c2)C(=O)O)cc1 ?
Given back: 90

Asked: Can you look up the measured clearance of COc1cccc(OC)c1-c1ccc(C[C@H](NC(=O)[C@]2(C)CCN2S(=O)(=O)c2cc(Cl)cc(Cl)c2)C(=O)O)cc1 for me?
Given back: 110

Asked: Value lookup for clearance; key = COc1cccc(OC)c1-c1ccc(C[C@H](NC(=O)[C@@H]2CCN2S(=O)(=O)c2ccccc2)C(=O)O)cc1
Given back: 107

###

# protocol_notes: Dissociation constant was evaluated
# Format: physicochemical
experimental_readout: pKa
Just the number, please, no unit attached.

# annotated cases, reported pKa shown
> print(dat)
                                   molecule  meas.value
1  COc1cccc(OC)c1-c1ccc(C[C@H](/N=C(\NS(C)(=O)=O)[C@@H]2CCN2S(=O)(=O)c2ccccc2)C(=O)O)cc1          -2
2  CN/C(=N\[C@@H](Cc1ccc(-c2c(OC)cccc2OC)cc1)C(=O)O)[C@@H]1CCN1S(=O)(=O)c1cc(Cl)cc(Cl)c1        10.2
3  COc1cccc(OC)c1-c1ccc(C[C@H](/N=C(\NC#N)[C@@H]2CCN2S(=O)(=O)c2ccccc2)C(=O)O)cc1          -2

Now take the following compound into account.
Asked: Look at this compound and give its reported pKa. CN/C(=N\[C@@H](Cc1ccc(-c2c(OC)cccc2OC)cc1)C(=O)O)[C@@H]1CCN1S(=O)(=O)c1ccccc1
Given back: 10.5
